Each recorded value in this set is attributed to the supplement of paper PMC8728848.

Let's look at some binders and their measured glycan array binding signal (z-score).
Molecular target: Gal(b1-3)[Fuc(a1-4)]GlcNAc(b1-3)Gal(b1-3)[Fuc(a1-4)]GlcNAc
Assay: glycan array binding signal (z-score within array); higher = stronger binding
Details: glycan notation: IUPAC condensed, linker removed
About 410 targets per protein were measured; listed, in parts, are those with the strongest signals and a random draw of the rest.

See these solved cases before continuing.
* AFL6 (Aspergillus fumigatus), Q4WKJ1 (protein) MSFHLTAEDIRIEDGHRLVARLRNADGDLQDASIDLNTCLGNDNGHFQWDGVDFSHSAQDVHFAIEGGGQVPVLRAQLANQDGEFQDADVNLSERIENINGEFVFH | -0.509
* PEB4 (Campylobacter jejuni), A1VYV6 (protein) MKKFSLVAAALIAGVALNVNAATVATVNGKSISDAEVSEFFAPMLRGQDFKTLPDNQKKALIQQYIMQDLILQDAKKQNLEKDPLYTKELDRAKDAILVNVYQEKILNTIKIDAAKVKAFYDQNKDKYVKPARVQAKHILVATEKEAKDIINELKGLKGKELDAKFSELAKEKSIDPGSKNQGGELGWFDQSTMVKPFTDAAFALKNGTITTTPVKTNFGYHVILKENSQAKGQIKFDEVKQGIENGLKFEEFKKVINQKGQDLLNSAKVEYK | 2.99

Here is another binder to look at.
glycan array binding signal (z-score) for Epa3to2 (Candida glabrata) (protein) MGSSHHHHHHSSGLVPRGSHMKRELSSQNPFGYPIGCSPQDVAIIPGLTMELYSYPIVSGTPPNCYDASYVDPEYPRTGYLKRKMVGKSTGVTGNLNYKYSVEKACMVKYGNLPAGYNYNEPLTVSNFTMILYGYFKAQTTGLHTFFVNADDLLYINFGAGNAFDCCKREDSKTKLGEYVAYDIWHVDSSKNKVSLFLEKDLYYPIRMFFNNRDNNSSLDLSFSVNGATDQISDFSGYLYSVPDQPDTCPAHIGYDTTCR ? -1.46
